SUBJECT_OF_TEST: Cyp24A1 mRNA (readout of VDR activation) (Mus musculus, UniProt P48281)
Sequence (P48281 whole entry): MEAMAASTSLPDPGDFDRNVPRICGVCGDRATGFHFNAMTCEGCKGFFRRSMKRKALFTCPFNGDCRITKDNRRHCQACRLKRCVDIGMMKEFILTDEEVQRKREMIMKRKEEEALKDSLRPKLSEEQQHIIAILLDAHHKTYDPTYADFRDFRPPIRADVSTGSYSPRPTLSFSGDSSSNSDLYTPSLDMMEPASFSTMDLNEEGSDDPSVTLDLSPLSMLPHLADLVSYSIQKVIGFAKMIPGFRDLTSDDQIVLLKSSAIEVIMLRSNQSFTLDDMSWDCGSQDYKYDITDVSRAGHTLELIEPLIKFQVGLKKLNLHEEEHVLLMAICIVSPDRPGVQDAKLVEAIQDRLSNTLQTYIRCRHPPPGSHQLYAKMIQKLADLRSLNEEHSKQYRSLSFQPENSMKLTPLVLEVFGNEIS
TEST: Activation of VDR in mouse ASZ001 cells assessed as change in Cyp24A1 mRNA expression at 5 uM after 24 hrs by q-PCR analysis relative to control
Type: ADME, cell-based
ASSAY_SETUP: read-out: FC
MEASUREMENT_KIND: fold induction at 24 h, 5 µM

INSERT INTO results (item_smiles, assay_result) VALUES
  ('CC(C)CCC[C@@H](C)[C@H]1CC[C@H]2[C@@H](OC(=O)c3cccc(O)c3)C[C@H](CCO)C[C@]12C', 1.1);

# per-item lookup of fold induction at 24 h, 5 µM; items listed below
1. C#CCCC(=O)OCC[C@H]1C[C@H](OC(=O)c2cccc(O)c2)[C@@H]2CC[C@H]([C@H](C)CCCC(C)C)[C@@]2(C)C1
2. CC[C@@H]1C[C@H](OC(=O)c2cccc(O)c2)[C@@H]2CC[C@H]([C@H](C)CCCC(C)C)[C@@]2(C)C1
3. CC(C)CCC[C@@H](C)[C@H]1CC[C@H]2[C@@H](Nc3ccc(O)cc3)C[C@H](CCO)C[C@]12C

Result:
0.96
1.3
2

====

SUBJECT_OF_TEST: Cyp24A1 mRNA (readout of VDR activation) (Mus musculus, UniProt P48281)
TEST: Activation of VDR in mouse C3H10T1/2 cells assessed as change in Cyp24A1 mRNA expression at 5 uM after 24 hrs by q-PCR analysis relative to control
Assay type: ADME, cell-based
ASSAY_SETUP: read-out: FC
MEASUREMENT_KIND: fold induction at 24 h, 5 µM
One number for each entry.

Look over these answered cases.
INSERT INTO assay_data (item_smiles, assay_result) VALUES
  ('CC(C)CCC[C@@H](C)[C@H]1CC[C@H]2[C@@H](OC(=O)c3cccc(O)c3)C[C@H](CCO)C[C@]12C', 9),
  ('CC(C)CCC[C@@H](C)[C@H]1CC[C@H]2[C@@H](OC(=O)c3cccc(O)c3)C[C@H](Cc3ccccc3)C[C@]12C', 3.6);

# per-item lookup of fold induction at 24 h, 5 µM; items listed below
1. C=C[C@H]1CC(=O)[C@@H]2CC[C@H]([C@H](C)CCCC(C)C)[C@@]2(C)C1
2. C#CCCC(=O)OCC[C@H]1C[C@H](OC(=O)c2cccc(O)c2)[C@@H]2CC[C@H]([C@H](C)CCCC(C)C)[C@@]2(C)C1
3. CC[C@@H]1C[C@H](OC(=O)c2cccc(O)c2)[C@@H]2CC[C@H]([C@H](C)CCCC(C)C)[C@@]2(C)C1
4. CC(C)CCC[C@@H](C)[C@H]1CC[C@H]2[C@@H](OC(=O)c3cccc(O)c3)C[C@H](c3ccccc3)C[C@]12C
5. CC(C)CCC[C@@H](C)[C@H]1CC[C@H]2[C@@H](OC(=O)c3cccc(O)c3)C[C@H](C3CCCCC3)C[C@]12C
6. CC(C)CCC[C@@H](C)[C@H]1CC[C@H]2[C@@H](Nc3ccc(O)cc3)C[C@H](CCO)C[C@]12C

Result:
1: 19; 2: 4.8; 3: 3.6; 4: 2.3; 5: 2.8; 6: 7.2

Request: Input CC(C)CCC[C@@H](C)[C@H]1CC[C@H]2[C@@H](O)C[C@H](CCO)C[C@]12C , output reported fold induction at 24 h, 5 µM.
Result: 17
